Experiment: PP-LFER solute descriptor determination from GC retention and partition coefficient data
Type: physicochemical
Details: 25 °C; updated in the iterative calculation
Endpoint label: Solute descriptor L (logarithmic hexadecane/air partition coefficient, KHxd/air)

>>> print(df.to_string())
                                   compound  quantitative_result
0  OCc1ccc(CCC(F)(F)C(F)(F)C(F)(F)C(F)(F)C(F)(F)C(F)(F)F)cc1                6.656
1  FC(F)(F)C(F)(F)C(F)(F)C(F)(F)C(F)(F)C(F)(F)I [PFHxI, Perfluorohexyl iodide]                2.508
2  CNS(=O)(=O)C(F)(F)C(F)(F)C(F)(F)C(F)(F)C(F)(F)C(F)(F)F [MeFHxSA, N-Methylperfluorohexanesulfonamide]                4.135
3  FC(F)C(F)(F)C(F)(F)C(F)(F)C(F)(F)C(F)(F)C(F)(F)C(F)F                2.130
4  C=CCOCC(F)(F)C(F)(F)C(F)(F)C(F)(F)C(F)(F)C(F)(F)C(F)(F)F                3.584
